Molecular target: HLA-A*02:01 (Homo sapiens, UniProt P04439, D140Y/D185E/D98H/E176V/E277Q/G131W/G231S/I119V/I121R/I166T/I218V/L300P/L318F/N151K/N90K/P208A/P217A/Q86G/Q94H/R138H/R169H/T345S)
Experiment: MHC binding assay: UV-ligand exchange with beta2m ELISA (exchange yield)
Details: binding to HLA-A*02:01, β2m ELISA
reported_property: Peptide exchange (MHC class I binding score, peptide exchange yield)

Some entries whose results are on file:
substance: 517 (LLMPIPEGLTL; listed as Homo sapiens) [compound 517]
value_reported: “+++” (≥50 = +++)
//
substance: 315 (YLQDVVEQA; listed as Homo sapiens) [compound 315]
value_reported: “+++” (≥50 = +++)
//
substance: 184 (YLMDINGKMWL; listed as Homo sapiens) [compound 184]
value_reported: “+++” (≥50 = +++)
//
substance: 29 (KMLGIPISNILMV; listed as Homo sapiens) [compound 29]
value_reported: “+++” (≥50 = +++)
//
substance: 489 (KMWEELPEVV; listed as Homo sapiens) [compound 489]
value_reported: “+++” (≥50 = +++)

What Peptide exchange (MHC class I binding score, peptide exchange yield) value was documented for this substance, 541 (SMLEPVPEL; listed as Homo sapiens) [compound 541] ?
“+++” (≥50 = +++)

What Peptide exchange (MHC class I binding score, peptide exchange yield) value was documented for this substance, 465 (QLCDLNAEL; listed as Homo sapiens) [compound 465] ?
“+++” (≥50 = +++)

What Peptide exchange (MHC class I binding score, peptide exchange yield) value was documented for this substance, 364 (LLQNEQFEL; listed as Homo sapiens) [compound 364] ?
“+++” (≥50 = +++)

====

Biological target: HLA-A*02:01 (Homo sapiens, UniProt P04439, D140Y/D185E/D98H/E176V/E277Q/G131W/G231S/I119V/I121R/I166T/I218V/L300P/L318F/N151K/N90K/P208A/P217A/Q86G/Q94H/R138H/R169H/T345S)
Test: MHC binding assay: UV-ligand exchange with beta2m ELISA (exchange yield)
Conditions: binding to HLA-A*02:01, β2m ELISA
Source text: Candidate peptides for T cell based therapies according to the present invention were further tested for their MHC binding capacity (affinity). The individual peptide-MHC complexes were produced by UV-ligand exchange, where a UV-sensitive peptide is cleaved upon UV-irradiation, and exchanged with the peptide of interest as analyzed. Only peptide candidates that can effectively bind and stabilize the peptide-receptive MHC molecules prevent dissociation of the MHC complexes. […]
reported_property: Peptide exchange (MHC class I binding score, peptide exchange yield)

Some entries whose results are on file:
substance: 501 (LLDPNVKSIFV; listed as Homo sapiens) [compound 501]
value_reported: “+++” (≥50 = +++)
--
substance: 243 (LLLNELPSV; listed as Homo sapiens) [compound 243]
value_reported: “+++” (≥50 = +++)
--
substance: 526 (RLAEVGQYEQV; listed as Homo sapiens) [compound 526]
value_reported: “++” (≥20% = ++)
--
substance: 448 (NLLETKLQL; listed as Homo sapiens) [compound 448]
value_reported: “+++” (≥50 = +++)
--
substance: 355 (SIQQSIERLLV; listed as Homo sapiens) [compound 355]
value_reported: “++” (≥20% = ++)
--
substance: 22 (IMEENPGIFAV; listed as Homo sapiens) [compound 22]
value_reported: “+++” (≥50 = +++)
--
substance: 62 (VLLDVSAGQLLM; listed as Homo sapiens) [compound 62]
value_reported: “++++” (≥75% = ++++)
--
substance: 605 (KLYEAVPQL; listed as Homo sapiens) [compound 605]
value_reported: “+++” (≥50 = +++)
--
substance: 444 (GLLRDEALAEV; listed as Homo sapiens) [compound 444]
value_reported: “+++” (≥50 = +++)
--
substance: 173 (LLDSASAGLYL; listed as Homo sapiens) [compound 173]
value_reported: “+++” (≥50 = +++)

What Peptide exchange (MHC class I binding score, peptide exchange yield) value was documented for this substance, 178 (ALTEIAFVV; listed as Homo sapiens) [compound 178] ?
“++++” (≥75% = ++++)

What Peptide exchange (MHC class I binding score, peptide exchange yield) value was documented for this substance, 11 (KIFEMLEGV; listed as Homo sapiens) [compound 11] ?
“+++” (≥50 = +++)

What Peptide exchange (MHC class I binding score, peptide exchange yield) value was documented for this substance, 222 (NLIENVQRL; listed as Homo sapiens) [compound 222] ?
“++” (≥20% = ++)

What Peptide exchange (MHC class I binding score, peptide exchange yield) value was documented for this substance, 119 (FLYIGDIVSL; listed as Homo sapiens) [compound 119] ?
“++++” (≥75% = ++++)

What Peptide exchange (MHC class I binding score, peptide exchange yield) value was documented for this substance, 27 (ILADIVISA; listed as Homo sapiens) [compound 27] ?
“+++” (≥50 = +++)

====

Target: HLA-A*02:01 (Homo sapiens, UniProt P04439, D140Y/D185E/D98H/E176V/E277Q/G131W/G231S/I119V/I121R/I166T/I218V/L300P/L318F/N151K/N90K/P208A/P217A/Q86G/Q94H/R138H/R169H/T345S)
Test: MHC binding assay: UV-ligand exchange with beta2m ELISA (exchange yield)
Conditions: binding to HLA-A*02:01, β2m ELISA
reported_property: Peptide exchange (MHC class I binding score, peptide exchange yield)

Some entries whose results are on file:
substance: 162 (YQQAQVPSV; listed as Homo sapiens) [compound 162]
value_reported: “+++” (≥50 = +++)

substance: 488 (FLAEDPKVTL; listed as Homo sapiens) [compound 488]
value_reported: “+++” (≥50 = +++)

substance: 202 (ALLDQQGSRWTL; listed as Homo sapiens) [compound 202]
value_reported: “+++” (≥50 = +++)

substance: 510 (KLYSVVSQL; listed as Homo sapiens) [compound 510]
value_reported: “++” (≥20% = ++)

What Peptide exchange (MHC class I binding score, peptide exchange yield) value was documented for this substance, 206 (VLQEGKLQKLAQL; listed as Homo sapiens) [compound 206] ?
“+++” (≥50 = +++)

What Peptide exchange (MHC class I binding score, peptide exchange yield) value was documented for this substance, 530 (VMYADIGGMDI; listed as Homo sapiens) [compound 530] ?
“+++” (≥50 = +++)

What Peptide exchange (MHC class I binding score, peptide exchange yield) value was documented for this substance, 388 (SLTIDGIRYV; listed as Homo sapiens) [compound 388] ?
“+++” (≥50 = +++)

What Peptide exchange (MHC class I binding score, peptide exchange yield) value was documented for this substance, 24 (SLSDGLEEV; listed as Homo sapiens) [compound 24] ?
“++” (≥20% = ++)

What Peptide exchange (MHC class I binding score, peptide exchange yield) value was documented for this substance, 200 (LLFGSVQEV; listed as Homo sapiens) [compound 200] ?
“+++” (≥50 = +++)

What Peptide exchange (MHC class I binding score, peptide exchange yield) value was documented for this substance, 181 (LLWAGTAFQV; listed as Homo sapiens) [compound 181] ?
“+++” (≥50 = +++)

What Peptide exchange (MHC class I binding score, peptide exchange yield) value was documented for this substance, 52 (FLLAHGLGFLL; listed as Homo sapiens) [compound 52] ?
“++++” (≥75% = ++++)

What Peptide exchange (MHC class I binding score, peptide exchange yield) value was documented for this substance, 328 (ALNDQVFEI; listed as Homo sapiens) [compound 328] ?
“+++” (≥50 = +++)

What Peptide exchange (MHC class I binding score, peptide exchange yield) value was documented for this substance, 508 (ILAQEQLVVGV; listed as Homo sapiens) [compound 508] ?
“+++” (≥50 = +++)

What Peptide exchange (MHC class I binding score, peptide exchange yield) value was documented for this substance, 468 (YLRSVGDGETV; listed as Homo sapiens) [compound 468] ?
“+++” (≥50 = +++)

What Peptide exchange (MHC class I binding score, peptide exchange yield) value was documented for this substance, 434 (KVSNSGITRV; listed as Homo sapiens) [compound 434] ?
“++” (≥20% = ++)

What Peptide exchange (MHC class I binding score, peptide exchange yield) value was documented for this substance, 17 (GLLPGDRLVSV; listed as Homo sapiens) [compound 17] ?
“+++” (≥50 = +++)

What Peptide exchange (MHC class I binding score, peptide exchange yield) value was documented for this substance, 78 (SLFSSLEPQIQPV; listed as Homo sapiens) [compound 78] ?
“+++” (≥50 = +++)

====

Biological target: HLA-A*02:01 (Homo sapiens, UniProt P04439, D140Y/D185E/D98H/E176V/E277Q/G131W/G231S/I119V/I121R/I166T/I218V/L300P/L318F/N151K/N90K/P208A/P217A/Q86G/Q94H/R138H/R169H/T345S)
Assay: MHC binding assay: UV-ligand exchange with beta2m ELISA (exchange yield)
Conditions: binding to HLA-A*02:01, β2m ELISA
reported_property: Peptide exchange (MHC class I binding score, peptide exchange yield)

Some entries whose results are on file:
substance: 458 (SLIDKLYNI; listed as Homo sapiens) [compound 458]
value_reported: “++” (≥20% = ++)
//
substance: 197 (ALGPEGGRV; listed as Homo sapiens) [compound 197]
value_reported: “++” (≥20% = ++)
//
substance: 133 (KVLSNIHTV; listed as Homo sapiens) [compound 133]
value_reported: “++” (≥20% = ++)
//
substance: 310 (FLVDTPLARA; listed as Homo sapiens) [compound 310]
value_reported: “++++” (≥75% = ++++)
//
substance: 552 (GLLDLPFRVGV; listed as Homo sapiens) [compound 552]
value_reported: “++++” (≥75% = ++++)

What Peptide exchange (MHC class I binding score, peptide exchange yield) value was documented for this substance, 114 (SLVGEPILQNV; listed as Homo sapiens) [compound 114] ?
“++” (≥20% = ++)

What Peptide exchange (MHC class I binding score, peptide exchange yield) value was documented for this substance, 349 (SLTEYLQNV; listed as Homo sapiens) [compound 349] ?
“++++” (≥75% = ++++)
